Ref: ChEMBL document CHEMBL5257027

Tested on: HCT-15
test_name: Cytotoxicity against human HCT-15 cells
Format: functional
conditions_used: read-out: LC50 (the source's name)
quantity: CC50 (µM)
Enter your answer as a number in µM; do not include the unit.

Study these solved cases before continuing.
• O=C(NCCCNc1cc(-c2cn(-c3ccccc3)nc2-c2cccc(O)c2)ccn1)c1ccccc1 = 100
• COc1cccc(-c2nn(-c3ccccc3)cc2-c2ccnc(NCCCNC(=O)Nc3ccc(Cl)c(Cl)c3)c2)c1 = 29.1
• O=C(NCCCNc1cc(-c2cn(-c3ccccc3)nc2-c2cccc(O)c2)ccn1)c1ccc(F)cc1 = 8.09

In: Name the reported CC50 value associated with the compound CNC(=O)c1cc(Oc2ccc(NC(=O)Nc3ccc(Cl)c(C(F)(F)F)c3)cc2)ccn1 [SORAFENIB]
Out: 50.1

In: Same thing, different compound: COc1cccc(-c2nn(-c3ccccc3)cc2-c2ccnc(NCCNC(=O)Nc3cccc(C(F)(F)F)c3)c2)c1
Out: 100
